# measured target: Recombinant Human Anaplastic Lymphoma Kinase (Homo sapiens)
# Construct: purchased Invitrogen, Carlsbad, Calif
# Sequence (Q9UM73 19-1620): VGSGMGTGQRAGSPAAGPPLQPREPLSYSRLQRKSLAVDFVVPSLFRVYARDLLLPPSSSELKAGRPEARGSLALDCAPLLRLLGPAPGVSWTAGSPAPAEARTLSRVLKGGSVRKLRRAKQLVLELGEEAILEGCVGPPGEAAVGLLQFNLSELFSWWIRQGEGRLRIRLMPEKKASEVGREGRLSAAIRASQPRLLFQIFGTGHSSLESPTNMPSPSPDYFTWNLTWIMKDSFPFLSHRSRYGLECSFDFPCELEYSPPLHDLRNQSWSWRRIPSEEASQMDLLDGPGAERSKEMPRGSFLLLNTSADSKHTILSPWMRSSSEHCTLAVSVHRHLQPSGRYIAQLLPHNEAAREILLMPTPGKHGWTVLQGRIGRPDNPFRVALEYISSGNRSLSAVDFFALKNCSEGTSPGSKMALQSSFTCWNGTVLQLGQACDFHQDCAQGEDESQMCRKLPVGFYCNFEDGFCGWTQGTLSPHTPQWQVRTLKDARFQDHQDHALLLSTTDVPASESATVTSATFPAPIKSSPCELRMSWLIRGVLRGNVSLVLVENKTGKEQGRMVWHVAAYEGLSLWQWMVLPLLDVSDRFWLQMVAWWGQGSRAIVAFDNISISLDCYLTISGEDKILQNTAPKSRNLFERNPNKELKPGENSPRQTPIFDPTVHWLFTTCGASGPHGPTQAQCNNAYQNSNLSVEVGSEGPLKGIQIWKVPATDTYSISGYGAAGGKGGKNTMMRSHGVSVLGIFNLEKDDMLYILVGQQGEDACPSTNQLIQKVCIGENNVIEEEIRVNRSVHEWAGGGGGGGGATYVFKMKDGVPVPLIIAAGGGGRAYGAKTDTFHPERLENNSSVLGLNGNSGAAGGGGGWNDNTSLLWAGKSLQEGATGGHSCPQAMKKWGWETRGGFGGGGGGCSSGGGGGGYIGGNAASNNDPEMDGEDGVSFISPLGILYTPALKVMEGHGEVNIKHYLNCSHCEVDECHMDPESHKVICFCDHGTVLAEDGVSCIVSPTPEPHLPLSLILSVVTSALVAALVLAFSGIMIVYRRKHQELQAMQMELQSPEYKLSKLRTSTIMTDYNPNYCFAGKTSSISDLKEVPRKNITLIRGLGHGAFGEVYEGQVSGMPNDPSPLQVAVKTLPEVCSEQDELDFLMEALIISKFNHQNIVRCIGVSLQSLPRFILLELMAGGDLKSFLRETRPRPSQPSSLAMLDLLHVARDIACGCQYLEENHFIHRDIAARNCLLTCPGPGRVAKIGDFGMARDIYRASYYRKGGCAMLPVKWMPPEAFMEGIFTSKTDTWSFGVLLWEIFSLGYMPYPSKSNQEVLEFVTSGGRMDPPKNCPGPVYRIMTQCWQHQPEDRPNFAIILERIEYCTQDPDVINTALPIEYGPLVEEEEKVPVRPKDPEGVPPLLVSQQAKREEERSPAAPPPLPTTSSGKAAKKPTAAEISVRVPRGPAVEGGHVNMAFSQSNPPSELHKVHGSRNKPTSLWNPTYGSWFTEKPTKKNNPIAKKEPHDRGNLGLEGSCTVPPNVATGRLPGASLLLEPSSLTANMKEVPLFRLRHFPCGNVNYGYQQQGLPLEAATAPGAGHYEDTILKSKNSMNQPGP
# experiment description: ALK HTRF kinase assay
# Assay type: biochemical
# setup conditions: compound at 500 nM or 1 mM; 90 μM ATP
Where a name gives a salt, the structure may show the parent alone.
metric: ALK % of inhibition at a concentration of 500 nM or 1 mM (%)

Below are worked cases with known answers.
N#Cc1ccccc1S(=O)(=O)N1CCC(CC(=O)Nc2ccc3cc2CCc2cccc(c2)Nc2ncc(Cl)c(n2)N3)CC1 [Example A208, trifluoroacetate] : 17
Cn1ccc2c(NC(=O)N3CCC(C(=O)Nc4ccc5cc4CCc4cccc(c4)Nc4ncc(Cl)c(n4)N5)CC3)cccc21 [Example A41, trifluoroacetate] : 58
O=C(CC1CCN(c2ncco2)CC1)Nc1ccc2cc1CCc1cncc(c1)Nc1ncc(Cl)c(n1)N2 [Example A246, tris(trifluoroacetate)] : 39
CCOC(=O)CNC(=O)N1CCC(C(=O)Nc2ccc3cc2CCc2cccc(c2)Nc2ncc(Cl)c(n2)N3)CC1 [Example A60, trifluoroacetate] : 28
N#Cc1ccc(C(F)(F)F)cc1N1CCC(CC(=O)Nc2ccc3cc2CCc2cncc(c2)Nc2ncc(Cl)c(n2)N3)CC1 [Example A237, tris(trifluoroacetate)] : 5.9

A = O=C(Nc1ccc2cc1CCc1cccc(c1)Nc1ncc(Cl)c(n1)N2)C1CCNCC1 [Example A28, bis(trifluoroacetate)]
B = O=C(Nc1ccc2cc1CCc1cccc(c1)Nc1ncc(Cl)c(n1)N2)C1CCCNC1 (stereo not drawn) [Example A44, bis(trifluoroacetate)]
C = Cc1cccc(NC(=O)N2CCC(CC(=O)Nc3ccc4cc3CCc3cncc(c3)Nc3ncc(Cl)c(n3)N4)CC2)c1 [Example A150, bis(trifluoroacetate)]
## Task In this exercise, place the 3 molecules in ascending sequence of their recorded ALK % of inhibition at a concentration of 500 nM or 1 mM. Kindly provide the labels arranged according to the requested ordering.
## Result B, A, C

I = NS(=O)(=O)N1CCC(C(=O)Nc2ccc3cc2CCc2cccc(c2)Nc2ncc(Cl)c(n2)N3)CC1 [Example A72, trifluoroacetate]
II = Cn1ccc2c(NC(=O)N3CCN(C(=O)COc4ccc5cc4CCc4cccc(c4)Nc4ncc(Cl)c(n4)N5)CC3)cccc21 [Example A11, trifluoroacetate]
## Task // task: argmin of ALK % of inhibition at a concentration of 500 nM or 1 mM over [ I , II ] Record your answer as the label of the chosen record.
## Result II
(II: 12%, I: 34%)

P = COc1cccc(S(=O)(=O)N2CCC(CC(=O)Nc3ccc4cc3CCc3cncc(c3)Nc3ncc(Cl)c(n3)N4)CC2)c1 [Example A196, bis(trifluoroacetate)]
Q = N#Cc1cccc(S(=O)(=O)N2CCC(CC(=O)Nc3ccc4cc3CCc3cncc(c3)Nc3ncc(Cl)c(n3)N4)CC2)c1 [Example A228, bis(trifluoroacetate)]
## Task // task: argmin of ALK % of inhibition at a concentration of 500 nM or 1 mM over [ P , Q ] Record your answer as the label of the chosen record.
## Result P

* * *

# measured target: human JAK1 (a.a. 837-1142) (Homo sapiens)
# Construct: human JAK1 (a.a. 837-1142); His tag (N); made in house; host or cells: insect cells (baculovirus)
# Sequence (P23458 849-1154): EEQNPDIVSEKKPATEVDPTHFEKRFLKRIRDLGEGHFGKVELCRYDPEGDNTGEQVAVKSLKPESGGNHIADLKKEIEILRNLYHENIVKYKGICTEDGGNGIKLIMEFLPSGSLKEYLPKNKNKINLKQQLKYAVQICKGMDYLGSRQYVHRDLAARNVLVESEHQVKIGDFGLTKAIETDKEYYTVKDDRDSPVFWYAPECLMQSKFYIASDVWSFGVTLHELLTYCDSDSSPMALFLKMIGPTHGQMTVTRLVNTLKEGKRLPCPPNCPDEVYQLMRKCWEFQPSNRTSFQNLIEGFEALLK
# experiment description: In vitro JAK kinase assay (HTRF, phosphorylation of a biotinylated peptide), JAK1
# Type: biochemical
# setup conditions: Table D1; read-out: JAK1 IC50
pIC50: −log10 of the molar value.
metric: pIC50

1 = Cc1cc(C(=O)N2CCC(COc3ccc4cc3CCc3cncc(c3)Nc3ncc(Cl)c(n3)N4)CC2)no1 [Example D226, bis(trifluoroacetate)]
2 = O=C(COc1ccc2cc1CCc1cncc(c1)Nc1ncc(Cl)c(n1)N2)N1CCN(C(=O)Nc2ccccc2)CC1 [Example D264, bis(trifluoroacetate)]
3 = Cc1ccc(N2CCN(C(=O)COc3ccc4cc3CCc3cncc(c3)Nc3ncc(Cl)c(n3)N4)CC2)nc1 [Example D246, tris(trifluoroacetate)]
## Task Ascending by pIC50, please. Kindly provide the labels arranged according to the requested ordering.
## Result 1, 3, 2
